molecular target: UniProt:P35462; test: Binding affinity to D3R (unknown origin) assessed as inhibition constant
Sequence (P35462 whole entry): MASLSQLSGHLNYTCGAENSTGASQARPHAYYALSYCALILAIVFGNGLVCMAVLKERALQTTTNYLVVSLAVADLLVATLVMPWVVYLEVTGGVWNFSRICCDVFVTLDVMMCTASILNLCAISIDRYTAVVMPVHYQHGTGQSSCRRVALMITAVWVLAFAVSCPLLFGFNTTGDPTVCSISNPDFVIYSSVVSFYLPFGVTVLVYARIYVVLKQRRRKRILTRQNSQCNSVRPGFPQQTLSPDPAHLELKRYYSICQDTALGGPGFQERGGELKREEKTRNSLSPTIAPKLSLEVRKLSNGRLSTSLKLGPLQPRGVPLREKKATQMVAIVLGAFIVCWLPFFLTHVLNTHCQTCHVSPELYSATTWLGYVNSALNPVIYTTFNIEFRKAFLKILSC
pKi: −log10 of the molar value.
Assay readout: pKi

>>> obs_value("Oc1cccc(OCCNCC2COCC(c3ccccc3)(c3ccccc3)O2)c1 (stereo not drawn)")
8.85
>>> obs_value("Clc1ccc(OCC2CN(Cc3c[nH]c4ncccc34)CCO2)cc1 (stereo not drawn)")
5.49

1 = CN(C)[C@@H](CNC(=O)NC[C@H]1Cc2ccccc21)CC1CCCCC1
2 = COc1ccccc1OCCNCC1COCC(c2ccccc2)(c2ccccc2)O1 (stereo not drawn)
Of 1 versus 2 , which is the one with smaller reported pKi? Record your answer as the label of the chosen record.
1
(1: 5.27, 2: 7.89)

* * *

biological target: UniProtKB P21917; experiment: Displacement of [3H]-spiperone from human D4 receptor expressed in CHO cells assessed as inhibition constant; assay type: cell-based
pKi: −log10 of the molar value.
Assay readout: pKi

// known answers, use as guide
>>> obs_value("COc1cc(Cl)ccc1OCC1CN(Cc2ccc(Cl)cc2)CCO1 (stereo unspecified)")
8.55
>>> obs_value("N#Cc1[nH]c2ccccc2c1CN1CCN(c2ccccc2)CC1")
9.12
>>> obs_value("Cc1ncc(CN2CC=C(c3ccccc3)CC2)c(N)n1")
8.28
>>> obs_value("O/N=C/c1c(CN2CCN(c3ccccc3)CC2)[nH]c2ccccc12")
9.30

1 = CCOC(=O)c1[nH]c2ccc(F)cc2c1CN1CCN(c2ccccc2)CC1
2 = OCc1[nH]c2ccccc2c1CN1CCN(c2ccccc2)CC1
// select label with min value of measured pKi from [ 1 , 2 ] Respond using the label that marks the chosen record.
1
(1: 8.82, 2: 9.18)

* * *

biological target: D(4) dopamine receptor (Homo sapiens); experiment: Agonist activity at D4R (unknown origin)
Assay readout: pEC50
Remember the convention: pEC50 equals -log10 of concentration in molar.

So for `CC(=O)O[C@H]1CC(C)(C)C(=C=C/C(C)=C/C=C/C(C)=C/C=C/C=C(C)/C=C/C=C(\C)C(=O)C[C@@]23O[C@]2(C)C[C@@H](O)CC3(C)C)[C@](C)(O)C1` , the logged pEC50 turned out to be 4.77

* * *

target: D(4) dopamine receptor (Homo sapiens, UniProt P21917); assay: Displacement of [3H]-spiperone from human D4 receptor expressed in HEK293 cells assessed as inhibition constant; assay type: cell-based
Assay readout: Ki (nM)
Output spec: scalar in nM, unitless text.

The reported Ki of the molecule Clc1ccc(OCC2CN(Cc3c[nH]c4ncccc34)CCO2)cc1 (stereo unspecified) was 1.5

* * *

Target: D(4) dopamine receptor (Homo sapiens)
Sequence (P21917 whole entry): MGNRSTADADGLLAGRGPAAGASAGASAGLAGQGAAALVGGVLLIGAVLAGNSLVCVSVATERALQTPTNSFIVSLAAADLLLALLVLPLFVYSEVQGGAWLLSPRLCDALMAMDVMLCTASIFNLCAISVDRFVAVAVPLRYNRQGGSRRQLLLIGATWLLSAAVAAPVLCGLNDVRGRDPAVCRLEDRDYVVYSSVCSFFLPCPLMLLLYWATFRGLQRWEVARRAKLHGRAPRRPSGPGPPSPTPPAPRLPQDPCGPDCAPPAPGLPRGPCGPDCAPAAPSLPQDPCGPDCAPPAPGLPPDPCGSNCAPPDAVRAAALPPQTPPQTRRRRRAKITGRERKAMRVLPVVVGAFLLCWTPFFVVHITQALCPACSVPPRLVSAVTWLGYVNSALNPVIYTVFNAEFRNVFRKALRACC
Assay: Binding affinity to D4R (unknown origin) assessed as inhibition constant
Assay readout: pKi
pKi is defined as minus the log10 of a concentration measured in mol/L.

Entry NS(=O)(=O)c1ccc(N2CCN(CCC3OCCc4ccccc43)CC2)cc1 (stereo unspecified) — recorded pKi = 8.44
